The origin of these recorded values is paper PMC11547452.

Consider the following molecules; for each one, report its IC50.
System: HCT 116
Assay: MTT antiproliferative assay, HCT 116
Format: cell-based
Settings: Homo sapiens, three different experiments, read-out: In Vitro Cytotoxicity IC50
Experimental: The antiproliferative activity of P1–P4 was evaluated by the MTT standard assay and sunitinib (a well-known FDA-approved multi-kinase inhibitor) as a reference against HCT 116, HepG2, and MCF-7 cell lines, and WI38 normal cell line. […] The antiproliferative activity of P1–P4 was assessed by using an MTT standard assay and sunitinib drug towards HCT 116, HepG2, MCF-7 cells, and WI38 normal cell line using the previously described methodology.
Answers are plain numbers, in µM.

Worked cases, IC50 given:
{"molecule": "C#CCn1cnc2c(c(C)nn2-c2ccccc2)c1=O [Compound P3]", "IC50, µM": 89.9}
{"molecule": "Cc1nn(-c2ccccc2)c2ncn(C)c(=O)c12 [Compound P2]", "IC50, µM": 38.7}
{"molecule": "Cc1nn(-c2ccccc2)c2nc[nH]c(=O)c12 [Compound P1]", "IC50, µM": 28.9}

Below: the item to evaluate.
-- ask Which value of IC50 has been reported for Cc1nn(-c2ccccc2)c2ncn(CC(=O)c3ccccc3)c(=O)c12 [Compound P4] in the records?
-- reply 92.5
